measured.on: MCL-1/Bim interaction (recombinant human MCL-1 protein, residues 171-327; biotinylated human Bim peptide, residues 51-76) (Homo sapiens (Human))
Sequence (Q07820 171-327): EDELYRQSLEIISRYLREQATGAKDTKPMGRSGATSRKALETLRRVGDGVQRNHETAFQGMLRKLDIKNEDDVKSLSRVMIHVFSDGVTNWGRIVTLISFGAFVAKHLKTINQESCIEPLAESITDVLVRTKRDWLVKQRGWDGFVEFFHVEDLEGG
protocol.details: MCL-1/Bim Binding AlphaLISA Assay
condition.notes: 0.0625 nM 6xHis-Mcl-1 (171-327), 0.0625 nM biotinylated-Bim peptide
Below, each of the compounds is paired with its reported IC50 value.
Report the value in nM with no unit label.

Recorded IC50, per entry:
CO[C@H]1/C=C/C[C@H](C)C[S@@](=O)(NC(=O)c2cc3n(c2)CCC3)=NC(=O)c2ccc3c(c2)N(C[C@@H]2CC[C@H]21)C[C@@]1(CCCc2cc(Cl)ccc21)CO3 [Example 136] ... 0.183
CO[C@H]1/C=C/C[C@H](C)C[S@@](=O)(NC(=O)N[C@@H]2CC[C@H]2OC)=NC(=O)c2ccc3c(c2)N(C[C@@H]2CC[C@H]21)C[C@@]1(CCCc2cc(Cl)ccc21)CO3 [Example 179] ... 0.102

[in] Return the recorded IC50 value; entry: CO[C@H]1/C=C/C[C@H](C)C[S@@](=O)(NC(=O)c2cc3n(c2)CCc2c-3cnn2C)=NC(=O)c2ccc3c(c2)N(C[C@@H]2CC[C@H]21)C[C@@]1(CCCc2cc(Cl)ccc21)CO3 [Example 208]
[out] 0.136
